test: yeast display, Sf9 membrane polyspecificity reagent, FACS + sequencing; frameworks hold sequencing errors
property: polyreactivity (PSR sort gate)

[[record]]
entry_sequence = "QVQLVESGGGLVQAGGSLRLSCAASRLTFNTYTIGWYRQAPGKERELVAGRSKSGGRTYYADSVKGRFTISRDNAKITVYLQMNILKAEDTSVYYCSTRSTTDFYWGHGTQVTVSS"
recorded_result = "high polyreactivity"

[[record]]
entry_sequence = "QVQLVESGGGLVQAGGSLRLSCAASGSIFTKYAMGWYRQAPGKEREFVAAITLSGGSTYYADSVKGRFTISRDNAKNTVYLQMNSLKPEDTAVYYCNAAYTYVTAWYYYWGQGTQVTVSS"
recorded_result = "high polyreactivity"

[[record]]
entry_sequence = "QVQLVESGGGLVQAGGSLRLSCAASGRIFTANAMGWYRQAPGKERELVAAITSGTRTNYADSVKGRFTISRDNAKNTVYLQMNSLKPEDTAVFYCAKETATSKYDYWGQGTQVTVSS"
recorded_result = "low polyreactivity"

[[record]]
entry_sequence = "QVQIVESGGGLVQAGGSLRLSCAASGTFARYAMGWYRQAPRKERELVAAITRRGGNTYYADSVKGRFSISRDNAKNTVYLPMNSQKPEDTAVYYCAILGEDTNGYWGQGTQVTVSS"
recorded_result = "high polyreactivity"

[[record]]
entry_sequence = "QVQLVESGGGLVHAGGSLRLSCAASGRICGPYVMGWYRQAPGKERELVASITSSGGSPYYADSVKGRFTISRDNAKNTVYLQMNSLKPEDTAVYYWGQGTQVSVSS"
recorded_result = "low polyreactivity"

[[record]]
entry_sequence = "QVQLVESGGGLVQAGGSLRLSCAASGRIFTGYAMGWYRQAPGKERELVAAISRGGSTNYADSVKGRFTISRDNAKNSVYLQMNSLKPEDTAVYYCAAGVHWDRGDYWGQGTQVTVSS"
recorded_result = "low polyreactivity"

[[record]]
entry_sequence = "QVQLVESGGGLVQAGGSLRLSCAASGFTFAYYTMGWYRQAPGKERELVAAISWSGSSTYYADSVKGRFTISRDNAKNTVYLQMNSLKPEDTAVYYCAAKGWYVQHFKRGLYNYWGQGTQVTVSS"
recorded_result = "high polyreactivity"

[[record]]
entry_sequence = "QVQLVESGGGLVQAGGSLRLSCAASGSIFVVYAMGWYRQAPGKERELVASIRTGGSTNYADSVKGRFTISRDNAKNTVYLQMNSLKPEDTAVYYCAAASWNSKRHYYVARYYYWGQGTQVTVSS"
recorded_result = "high polyreactivity"


Give its polyreactivity (PSR sort gate) value. Item: QVQLVESGGGLVQAGGSRRLSCAASGRTFRNYAMGWYRQAPGKERELVAAINFSGDGTYYADSVKGRFTISRDNAKNTVYLQMNSLKPEDTAVYYCAADVEYYRDVPQQVYVSDDYWGQGTQVTVSS low polyreactivity

What about QVQLVESGGGLVQAGGSLRLSCAASGRTFYFYAMGWYRQAPGKERELVAAITVRGGSTYYADSVKGRFTISRYNAKNTVYLQMNSLKPEDTAVYYCAADPYPYYGAYDYWGQGTQVTVSS ? high polyreactivity

What about QVQHVESGGGLDQAGGSLRFSCAASGTIFVYNAMGSYREAPGKERELVAAMDTVGSTNYADSVKGRFTISRDNAKNTVYLQMNSLKPEDTAVYYCAVVTPYWSFFEQVIPSNYWGQGSQVTVSS ? low polyreactivity

====

test: yeast display, Sf9 membrane polyspecificity reagent, FACS + sequencing; frameworks hold sequencing errors
property: polyreactivity (PSR sort gate)

Example entries and their recorded answers appear below.
[[record]]
entry_sequence = "QVQLVESGGGLVQAGGSLRLSCAASGLTFSAYAMGWYRQAPGKERELVAAITSSGGSTYADSVKGRFTISRDNAKNTVYLQMNSLKPEDTAVYYCAARVVRYGYKYYYWGQGTQVTVSS"
property = "polyreactivity (PSR sort gate)"
recorded_result = "low polyreactivity"

[[record]]
entry_sequence = "QVQLVESGGGLVQAGGSLRLICAASGLTFKSNTMGWYRQAPGKERELVAAISRSGGRTYYADSVKGRFTLSRDNAKNTVYLQMNSLKPEDTAVYYCAALYHTYLTWREDYWGQGTQVTVSS"
property = "polyreactivity (PSR sort gate)"
recorded_result = "high polyreactivity"

[[record]]
entry_sequence = "QVQLVESGGGLVQAGGSLRLSCAASGITFRYYAMGWYRQAPGKERELVATISSSGARTYYADSVKGRFTISRDNAKNTVYFQINSLKPEDTAVYYCNAVTFTLHSQPYDYWGQGTQVTVSS"
property = "polyreactivity (PSR sort gate)"
recorded_result = "high polyreactivity"

[[record]]
entry_sequence = "QVQLEESGGGLVQAGGSLRFSCAASGSIFDYNAMGWYRQAPGTERELVAAITYSGGTTYADSVKGRFTISRDNAKNTVYLQMNSLKPEDTAVDYCAATSYDRFAYYYWGQGTQVTVSS"
property = "polyreactivity (PSR sort gate)"
recorded_result = "low polyreactivity"


Pending sequence:
Give its polyreactivity (PSR sort gate) value. Item: QVHLVESGGGLVQAGGSLRLSCAASGLIFNIYAMGWYRQAPGKERELVAAISKSGGSTYYADSVKGRFTISRDNAKNTVYLQMNSLKPEDTAVYYCAVVRNSYRVLRLNYWGQGTQVTVSS high polyreactivity

====

assay: yeast display, Sf9 membrane polyspecificity reagent, FACS + sequencing; frameworks hold sequencing errors
property: polyreactivity (PSR sort gate)

Example entries and their recorded answers appear below.
[[record]]
entry_sequence = "QVQLVESGGGLVQAGGSLRLSCDASGSIFAYYAMRWYRPAPGKERELVAAISSRGGNTYYADSVKGRFTISRDYAKNTVYLQMNSLKPEDNAVYYCAAYSASYTFDYWGQGTQVTVSS"
recorded_result = "high polyreactivity"

[[record]]
entry_sequence = "QVQLVESGGGLVQAGGSLRLSCAASGSTFARYAMGWYRQAPGKERELVAAISKGGDRTYYADSVKGRFTISRDNAKNTVYLQMNSLKPEDTAVYYCAARYTPRRYYYWGQGTQVTVSS"
recorded_result = "high polyreactivity"

[[record]]
entry_sequence = "QVQLVESGGGLVQAGGSLRLSCAASGRTFGRNTMGWYRQAPGKERELVASITRSSGSTYYADSVKGRFTISRDNAKNTVYLQMNSLKPEDTAVSYCNARATSGGDYWGQGTQVTVSS"
recorded_result = "high polyreactivity"

[[record]]
entry_sequence = "QVQLVESGGGLVQAGGSLRLSCAASGSIFSPNAMGWYRQAPGKERELVAAITDSGGSTYYADSVKGRFTISRDNAKNTVYLQMNSLKPEDTAVYYCAVATGLLYKSHGYWGQATQVTVSS"
recorded_result = "low polyreactivity"

[[record]]
entry_sequence = "QVQLVESGGGLVQAGGSLRLSCAASGSTFYHYAMGWYRQAPGKERELVAAISTSGGRTYYADSVKGRFTISRDNAKNTVYLQMNSLKPEDTAVYYCAARPGSWYPSVPSYNYWGQGTQVTVSS"
recorded_result = "low polyreactivity"

[[record]]
entry_sequence = "QVQLVESGGGLVQAGGSLRLSCAASGITSYYYTMGWYRQAPGKERELVAAITSGGSTYYADSVKGRFTISRDNAKNTVYLQMNSLKPEDNAVYYCTADNPRYRGSKYGPYDDYNYWGQGTQVTVSS"
recorded_result = "low polyreactivity"

[[record]]
entry_sequence = "QVQLVESGGGLVQAGGSLRLSCAASGITISVNDMGWYRQAPGKERELVAAISSGDSTNYADSVKGRFTISRDNAKNTVYLQMNSLKPEDTAVYYCAALEGSLTGWQTYDYWGQGTQVSVSS"
recorded_result = "low polyreactivity"

[[record]]
entry_sequence = "QVQLVESGGGLVQAGGSLRLTCAASGSIFVGYAMGWYREAPGKEMELVAAITTRGDTTYYADSVKGRFTISRDNAKNTVYLQMNSLKPEHTAVYYCNTTSFFQAWPSDVQYDYWGQGTQVTVSS"
recorded_result = "low polyreactivity"

[[record]]
entry_sequence = "QVQFVESGGGLVQAGGSLRLSCAASGSIFIYNAMGWYRQAPGTERELVAAISRGGTNTYYADSVKGRFTISRDNAKNTVYLQMNSLKPEDTAVYYCAARGGYIGSRNNYWGQGTQVTVSS"
recorded_result = "high polyreactivity"

[[record]]
entry_sequence = "QVQLVESGGGLVQAGGSLRLSCAASGRTLFPNVMGWYRQAPRQERELFAAITTIGGSTYYADSVKGRITISRDNAKNTVFLQMNSLKPEDTEVYYCNARYRGRGLKFGYWGQGTQVTVSS"
recorded_result = "high polyreactivity"


Give its polyreactivity (PSR sort gate) value. Item: QVQLVESGGGLVQAGGSLRLSCAASGLTFSHYAMGWYRQAPGKERELVAGISSRGGNTYYADSVKGRFTISRDYAKNTVYLQMNSLKPEDTAVFYCNAPKPKRAYDYWGQGSQVTVSS high polyreactivity

====

test: yeast display, Sf9 membrane polyspecificity reagent, FACS + sequencing; frameworks hold sequencing errors
property: polyreactivity (PSR sort gate)

Example entries and their recorded answers appear below.
[[record]]
entry_sequence = "QVQLVESGGGLVQAGCSLRLSCAASGSIFYRNPMVWYRQAPGKERELVAAISSDGSTNYADSVKGRFTISRDNAKNTVYLQMNSLKPEDTAVYYCAAPWTQILDYWGQGTQVTVSS"
recorded_result = "low polyreactivity"

[[record]]
entry_sequence = "QVQLVESGGGLVQAGGSLRLSCAAYSYVMGWYRQAPGKERELVAAISQSGGSTYYADSVKGRFTISRDNAKNTVYLQMNSLKPEDTAVYYCAARREPYQYNQYYSWGQGTQVTVSS"
recorded_result = "high polyreactivity"

[[record]]
entry_sequence = "QVQLVESGGGLVQAGGSLRLSCAASGSTFNDYVMGWYRKAPGKERELVAAISRSGGSTYYADSVKGRFTISRDNAKNTVYIQMNSLKPEDTAFYYCNSDVGYWWGYYGYDYWGQGTQVTVSS"
recorded_result = "high polyreactivity"

[[record]]
entry_sequence = "QVQLVESGGGLFQAGGSLRLSCAASGSIFTPNTMGWYRKAPGKERELVAAITIRGGSTYYADSLKGRFTISRDNAKNTVYLQMNSLKPEDTAVYYCATEYALRYYLVDYWGQGTQVTVSS"
recorded_result = "low polyreactivity"

[[record]]
entry_sequence = "QVQLVESGGGLVQAGGSLRLSCAASGSTFPYNAMGWYRQAPGKEREMVAAITYSGGSTYYADSVKGRFTISRDNAKNTVYLQMNSLKPEDTAVYYCNADDSTTYDYWGQGTQVTVSS"
recorded_result = "low polyreactivity"

[[record]]
entry_sequence = "QVQLVDSGGGLVQAGGSLRLSSAASGYIFVVNAMGWYRPAPGKERELVAAIDWGGGSTYADSVKGRFTISRDNAKNTVYLQMNSLKPEDTAVYYCAADLWPYPTDYWGQGTQVTVSS"
recorded_result = "low polyreactivity"


Give its polyreactivity (PSR sort gate) value. Item: QVQHVESAGGLVQAGGSLRLSCAASGRTFDYNAMGWYRQAPGKERELVAAISWRGGNTYYADSVKGRFTISRDNAKNTVYLQMNSLKPEDTAVYYCGAVYRYSTRNYGYWGQGTQVTVSS high polyreactivity

What about QVQLVESGGGLVQAGGSLRLSCAASGSIFYRYAMGWNRPAPGKERELVAAISRSGGTTYYADSVKGRFTISRDNAKNTVYLQMYCLKPEDTAVYYCAALVFHAYSTDPYFYWGQGTQVTVSS ? high polyreactivity

What about QVQLVESGGGLVQAGGSLRLSCAASGRTLGGYAMGWYRQAPGKERELVASITARGGSTYYADSVKGRFTISRDNAKNTVYLQMNSLKPEDTAVYYCNKRTRRTYDYWGQGTQVTVSS ? high polyreactivity

What about QVQLVESGGGLVQAGGSLRLSCAASGFTFWGNAMGWYRPAPGKERELVAAITDTGSTNYADSVKGRFTISRDNAKNTVYLQMNSLKPEDTAVYYCAKDKAYYDWGQTNGYWGQGTQVTVSS ? low polyreactivity

What about QVQLVESGGGLVQAGGSLRLSCAASGLILYHYAMGWYREAPGKERELVAAISSGGITHYADSVKGRFTISRDNAKNTVYLQMNILKPEDNAVYYCNAVSYYWHDFDYWGQGTQVTVSS ? high polyreactivity
